Each entry below carries its recorded MIC.
Test system: C. krusei
Assay type: cell-based, Candida krusei
condition.summary: C. krusei strain NCPF3953
Write it as a number; the unit µM goes unstated.

compound: N=C(N)NCCC[C@H](NC(=O)[C@H](CCCNC(=N)N)NC(=O)[C@H](CCCNC(=N)N)NC(=O)[C@H](CCCNC(=N)N)NC(=O)[C@H](CCCNC(=N)N)NC(=O)[C@H](CCCNC(=N)N)NC(=O)[C@H](CCCNC(=N)N)NC(=O)[C@H](CCCNC(=N)N)NC(=O)[C@H](CCCNC(=N)N)NC(=O)[C@H](CCCNC(=N)N)NC(=O)[C@H](CCCNC(=N)N)NC(=O)[C@H](CCCNC(=N)N)NC(=O)[C@@H](N)CCCNC(=N)N)C(=O)O [NP318]
target: C. krusei
unit.tag: µM
reported.measurement: 8

Value sought: MIC, system C. krusei, item N=C(N)NCCC[C@H](NC(=O)[C@H](CCCNC(=N)N)NC(=O)[C@H](CCCNC(=N)N)NC(=O)[C@H](CCCNC(=N)N)NC(=O)[C@H](CCCNC(=N)N)NC(=O)[C@H](CCCNC(=N)N)NC(=O)[C@H](CCCNC(=N)N)NC(=O)[C@H](CCCNC(=N)N)NC(=O)[C@H](CCCNC(=N)N)NC(=O)[C@H](CCCNC(=N)N)NC(=O)[C@H](CCCNC(=N)N)NC(=O)[C@H](CCCNC(=N)N)NC(=O)[C@@H](N)CCCNC(=N)N)C(=O)O [NP337] . Result: 16

Item N=C(N)NCCC[C@H](NC(=O)[C@H](CCCNC(=N)N)NC(=O)[C@H](CCCNC(=N)N)NC(=O)[C@H](CCCNC(=N)N)NC(=O)[C@H](CCCNC(=N)N)NC(=O)[C@H](CCCNC(=N)N)NC(=O)[C@H](CCCNC(=N)N)NC(=O)[C@H](CCCNC(=N)N)NC(=O)[C@H](CCCNC(=N)N)NC(=O)[C@H](CCCNC(=N)N)NC(=O)[C@H](CCCNC(=N)N)NC(=O)[C@H](CCCNC(=N)N)NC(=O)[C@@H](N)CCCNC(=N)N)C(=O)O [NP351] was tested on C. krusei; the reported MIC is 32

* * *

System: C. krusei
Type: cell-based, Candida krusei
condition.summary: C. krusei strain ATCC6258
A collection of molecules and their measured MIC

Some solved cases for reference:
molecule: CC(=O)N[C@H](CCCNC(=N)N)C(=O)N[C@H](CCCNC(=N)N)C(=O)N[C@H](CCCNC(=N)N)C(=O)N[C@H](CCCNC(=N)N)C(=O)N[C@H](CCCNC(=N)N)C(=O)N[C@H](CCCNC(=N)N)C(=O)N[C@H](CCCNC(=N)N)C(=O)N[C@H](CCCNC(=N)N)C(=O)N[C@H](CCCNC(=N)N)C(=O)N[C@H](CCCNC(=N)N)C(=O)N[C@H](CCCNC(=N)N)C(=O)N[C@H](CCCNC(=N)N)C(=O)N[C@H](CCCNC(=N)N)C(N)=O [NP340, Ac-dRdRdRdRdRdRdRdRdRdRdRdRdR-NH2]
reported.measurement: 4 µM

molecule: N=C(N)NCCC[C@H](NC(=O)[C@H](CCCNC(=N)N)NC(=O)[C@H](CCCNC(=N)N)NC(=O)[C@H](CCCNC(=N)N)NC(=O)[C@H](CCCNC(=N)N)NC(=O)[C@H](CCCNC(=N)N)NC(=O)[C@H](CCCNC(=N)N)NC(=O)[C@H](CCCNC(=N)N)NC(=O)[C@H](CCCNC(=N)N)NC(=O)[C@H](CCCNC(=N)N)NC(=O)[C@H](CCCNC(=N)N)NC(=O)[C@H](CCCNC(=N)N)NC(=O)[C@@H](N)CCCNC(=N)N)C(=O)O [NP318]
reported.measurement: <16 µM

Summary for this molecule, N=C(N)NCCC[C@@H](N)C(=O)N[C@H](CCCNC(=N)N)C(=O)N[C@H](CCCNC(=N)N)C(=O)N[C@H](CCCNC(=N)N)C(=O)N[C@H](CCCNC(=N)N)C(=O)N[C@H](CCCNC(=N)N)C(=O)N[C@H](CCCNC(=N)N)C(=O)N[C@H](CCCNC(=N)N)C(=O)N[C@H](CCCNC(=N)N)C(=O)N[C@H](CCCNC(=N)N)C(=O)N[C@H](CCCNC(=N)N)C(=O)N[C@H](CCCNC(=N)N)C(=O)N[C@H](CCCNC(=N)N)C(=O)O [NP339, dRdRdRdRdRdRdRdRdRdRdRdRdR] : MIC is 2 µM

* * *

Test system: C. parapsilosis
Type: cell-based, Candida parapsilosis
condition.summary: C. parapsilosis strain ATCC90018
property: MIC

Answered examples (2):
compound: N=C(N)NCCC[C@@H](N)C(=O)N[C@H](CCCNC(=N)N)C(=O)N[C@H](CCCNC(=N)N)C(=O)N[C@H](CCCNC(=N)N)C(=O)N[C@H](CCCNC(=N)N)C(=O)N[C@H](CCCNC(=N)N)C(=O)N[C@H](CCCNC(=N)N)C(=O)N[C@H](CCCNC(=N)N)C(=O)N[C@H](CCCNC(=N)N)C(=O)N[C@H](CCCNC(=N)N)C(=O)N[C@H](CCCNC(=N)N)C(=O)N[C@H](CCCNC(=N)N)C(=O)N[C@H](CCCNC(=N)N)C(=O)O [NP339, dRdRdRdRdRdRdRdRdRdRdRdRdR]
MIC: 2 µM

compound: CC(=O)N[C@@H](CCCNC(=N)N)C(=O)N[C@@H](CCCNC(=N)N)C(=O)N[C@@H](CCCNC(=N)N)C(=O)N[C@@H](CCCNC(=N)N)C(=O)N[C@@H](CCCNC(=N)N)C(=O)N[C@@H](CCCNC(=N)N)C(=O)N[C@@H](CCCNC(=N)N)C(=O)N[C@@H](CCCNC(=N)N)C(=O)N[C@@H](CCCNC(=N)N)C(=O)N[C@@H](CCCNC(=N)N)C(=O)N[C@@H](CCCNC(=N)N)C(=O)N[C@@H](CCCNC(=N)N)C(=O)N[C@@H](CCCNC(=N)N)C(N)=O [NP338]
MIC: 128 µM

Lab note: CC(=O)N[C@H](CCCNC(=N)N)C(=O)N[C@H](CCCNC(=N)N)C(=O)N[C@H](CCCNC(=N)N)C(=O)N[C@H](CCCNC(=N)N)C(=O)N[C@H](CCCNC(=N)N)C(=O)N[C@H](CCCNC(=N)N)C(=O)N[C@H](CCCNC(=N)N)C(=O)N[C@H](CCCNC(=N)N)C(=O)N[C@H](CCCNC(=N)N)C(=O)N[C@H](CCCNC(=N)N)C(=O)N[C@H](CCCNC(=N)N)C(=O)N[C@H](CCCNC(=N)N)C(=O)N[C@H](CCCNC(=N)N)C(N)=O [NP340, Ac-dRdRdRdRdRdRdRdRdRdRdRdRdR-NH2] gave MIC of 2 µM

# compound N=C(N)NCCC[C@H](NC(=O)[C@H](CCCNC(=N)N)NC(=O)[C@H](CCCNC(=N)N)NC(=O)[C@H](CCCNC(=N)N)NC(=O)[C@H](CCCNC(=N)N)NC(=O)[C@H](CCCNC(=N)N)NC(=O)[C@H](CCCNC(=N)N)NC(=O)[C@H](CCCNC(=N)N)NC(=O)[C@H](CCCNC(=N)N)NC(=O)[C@H](CCCNC(=N)N)NC(=O)[C@H](CCCNC(=N)N)NC(=O)[C@H](CCCNC(=N)N)NC(=O)[C@@H](N)CCCNC(=N)N)C(=O)O [NP337] ; its MIC = 128 µM

Reference for the values: patent US9169290B2
